- assay protocol: qHTS for Inhibitors of Inflammasome Signaling: IL-1-beta AlphaLISA Primary Screen; note: % is set by controls: 0 for no effect and ±100 for the full control effect
- protocol conditions: THP-1 LPS/ATP IL-1B secretion, 16 h; at 57.5 µM, active compounds read low
In all, about 360,000 compounds went through this assay and about 17,000 (4.7%) were called active. Roughly 5% stayed inconclusive and do not appear here. The sample holds actives, similar compounds and a random draw of the others, so the mix is not that of the screen.
// NB: equality with 10% counts as -1; only activity change strictly below is 1

Take a look at these entries with their results.
>>> df
                                   compound  qualitative_label
0  CC1(C(=O)O)CCCN(C(=O)/C=C/c2ccccc2)C1 (stereo not given)                 -1
1            CCCCN(C)CCNC(=O)CSCc1ccc(C)cc1                 -1
2  CCc1ccccc1NC(=O)[C@@H]1CCC(=O)N1C1OC(=O)c2c1ccc(OC)c2OC (stereo not given in full)                  1
3  COCCSc1nnc(NC(=O)CCS(=O)(=O)Cc2ccccc2)s1                  1
4  CCC(CO)Oc1cc(NC(=O)c2ccc(Cl)cc2)c2ncn(C(C)C)c2c1 (stereo not given)                  1

Q: Hello, I'm reviewing records and need to know if activity change of `CCCCCc1ccc(-c2ccc(C(=O)O)cc2)nc1` is below 10%. Could you check?
Result: -1

Q: And what about the compound `CCCN(CC(=O)Nc1ccccc1C)C(=O)c1ccc(OCC(=O)N2CCOCC2)c(OCC)c1` ?
Result: 1

Q: And what about the compound CC1(C)OC(=O)C2=C(CC(c3ccccc3)OC2CCc2ccccc2)O1 (stereo not given) ?
Result: 1

Q: And what about the compound `COC(=O)c1c(C)[nH]c(C(=O)/C=C/c2ccc(Cl)cc2)c1C` ?
Result: 1

Q: And what about the compound `O=C(CSC1=NCCS1)Nc1nc(-c2ccccc2)cs1` ?
Result: 1

Q: And what about the compound `C[C@H](CO)N1C[C@H](C)[C@@H](CN(C)S(=O)(=O)c2ccc(Oc3ccccc3)cc2)OCc2cn(nn2)CCCC1=O` ?
Result: 1

Q: And what about the compound CCCNC(=O)C1CC(=O)N(c2ccc(OCc3ccccc3)cc2)C1 (stereo not given) ?
Result: -1

Q: And what about the compound `Cc1csc(NC(=O)C2CCN(S(=O)(=O)c3ccccc3)CC2)n1` ?
Result: 1

Q: And what about the compound `CCCc1cc(-c2nc(-c3ccc(C)cc3)cs2)ccn1` ?
Result: -1

Q: And what about the compound `CCc1cc2c(NC3CCCC3)ncnc2s1` ?
Result: 1

Q: And what about the compound `Cc1nnc(NC(=O)CCCOc2ccccc2)s1` ?
Result: -1

Q: And what about the compound `O=C(c1ccc2c(c1)C(=O)N(c1ccc(Cl)cc1)C2=O)N1CCN(c2ccccn2)CC1` ?
Result: -1

Q: And what about the compound `COc1ccc(Cc2nnc(NC(=O)Cc3cccs3)s2)cc1` ?
Result: -1

Q: And what about the compound `CSc1ncc(Sc2ccccc2)c(C(=O)O)n1` ?
Result: 1

Q: And what about the compound `Cc1ccc(C=O)c([B-](F)(F)F)c1` ?
Result: 1

Q: And what about the compound `COCCN(C(=O)C(C)C)c1nnc(-c2ccc(C(C)(C)C)cc2)s1` ?
Result: 1

Q: And what about the compound `O=C(/C=C/c1ccc(N2CCOCC2)cc1)c1ccccc1` ?
Result: 1

Q: And what about the compound CCC1(C)COC(c2ccc(OC)c(OC)c2)OC1 (stereo not given) ?
Result: -1

Q: And what about the compound CCOC(=O)C1=CCC(c2ccc(F)cc2)N(S(=O)(=O)c2ccc(C)cc2)C1 (stereo not given) ?
Result: -1

Q: And what about the compound Cc1cccc(C)c1NC(=O)N1CC(C)OC(C)C1 (stereo not given) ?
Result: 1

Q: And what about the compound `CNS(=O)(=O)c1ccc(NC(=O)Nc2ccc3c(c2)OCO3)cc1` ?
Result: 1

###

- assay protocol: qHTS for Inhibitors of Inflammasome Signaling: IL-1-beta AlphaLISA Primary Screen
- protocol conditions: THP-1 LPS/ATP IL-1B secretion, 16 h; at 57.5 µM, active compounds read low
- Source text: Inflammasomes are a set of intracellular multi-protein complexes that enable autocatalytic activation of inflammatory caspases and drive the innate immune response to counter harmful agents. […] A qHTS assay, based on AlphaLISA technology, was developed to screen the Molecular Libraries Small Molecule Repository (MLSMR) to look for novel inflammasome inhibitors. The assay detects IL-1B using AlphaLISA anti-IL-1B acceptor and donor beads. […]
Out of some 360,000 compounds screened, about 17,000 (4.7%) were called active. Roughly 5% stayed inconclusive and do not appear here. Shown is part of a subset that was picked to be rich in actives.
Could you please report measured activity change for the items listed next?

>>> df
                                   compound             result
0  CC1(C)O[C@@H]2CC3C4C[C@H](F)C5=CC(=O)C=CC5(C)C4C(O)CC3(C)[C@]2(C(=O)CO)O1 (stereo not given in full)    -54.9% (active)
1  CCNC(=O)C1(C)CCCN(C(=O)c2c(C)noc2C)C1 (stereo not given)     25% (inactive)
2  COCCNc1cc(-c2ccccc2)nc2cc(-c3cccc(F)c3)nn12    -67.2% (active)
3      CN(CC(=O)Nc1cccc(F)c1)C(=O)C1=COCCO1   2.81% (inactive)
4           O=C1CCC/C(=N\NC(=O)NC2CCCCC2)C1  -10.6% (inactive)
5  CC1CCc2[nH]c3ccc(C(=O)N(C)CC(=O)Nc4cccc(F)c4)cc3c2C1 (stereo not given)    -74.7% (active)
6  CN1CCN(CCC(=O)N/N=C/C=C2\N(C)c3ccccc3C2(C)C)CC1   10.2% (inactive)
7  CC1(C(=O)NS(=O)(=O)c2cccc(OC(F)F)c2)CCN1C(=O)COc1ccc(Cl)cc1 (stereo not given)   48.6% (inactive)

# return activity change for each item in the list
1. CC(=O)Nc1ccc(NC(=O)COc2ccc(-c3ccccc3)cc2)cc1
2. CS(=O)(=O)N(CC(=O)N1CCCCCC1)c1cccc(Cl)c1Cl

Result:
1: -15.4% (inactive); 2: -9.4% (inactive)

###

Could you please report measured activity change for the items listed next?
- assay protocol: qHTS for Inhibitors of Inflammasome Signaling: IL-1-beta AlphaLISA Primary Screen
- protocol conditions: THP-1 LPS/ATP IL-1B secretion, 16 h; at 57.5 µM, active compounds read low
The whole screen tested about 360,000 compounds, of which about 17,000 (4.7%) were called active. Not shown: some 5% with an inconclusive outcome. The list comes from a sample in which actives are over-represented; it also holds close analogues and randomly drawn compounds.

Use the examples below as a reference point.
                                   compound             result
0  CC(C)CNC(=O)C1(C)CCCN1C(=O)CSc1ccccc1 (stereo not drawn)   24.3% (inactive)
1  CCCN(C(=O)COC(=O)CNS(=O)(=O)c1ccc(NC(C)=O)cc1)C1CCS(=O)(=O)C1 (stereo not drawn)   14.5% (inactive)
2         CCS(=O)(=O)N1CCN(C(=O)c2cccs2)CC1   38.7% (inactive)
3              CCOC(=O)Nc1ccc(NC(=O)OCC)cc1  0.929% (inactive)

# return activity change for each item in the list
1. COc1ccc(CN2C(=O)C(CC(=O)NCCCCc3ccccc3)CC(C(=O)N3CCOCC3)=C2C)cc1 (stereo not drawn)
2. O=C1C(=O)N(CC2COc3ccccc3O2)c2ccccc21 (stereo not drawn)
3. Cc1ccc(S(=O)(=O)N(CC(=O)Nc2cccnc2)c2ccc(Br)cc2)cc1
4. CCc1nc2ccc(C(=O)N(C)CCN(C)C)cn2c1N(CC)CCOC
5. COc1ccc(NC(=O)C[C@H]2C(=O)N(CCc3ccccc3)C[C@@H]2C)cc1
6. O=C(Nc1ccc(Cl)cn1)c1ccc2c(c1)OCCO2
7. Cc1cc(C(=O)CCl)c(C)n1CC1COc2ccccc2O1 (stereo not drawn)

Result:
1: -11% (inactive); 2: 11.2% (inactive); 3: -14.5% (inactive); 4: -19.3% (inactive); 5: -9.78% (inactive); 6: 2.51% (inactive); 7: -68.9% (active)

###

- assay protocol: qHTS for Inhibitors of Inflammasome Signaling: IL-1-beta AlphaLISA Primary Screen
- protocol conditions: THP-1 LPS/ATP IL-1B secretion, 16 h; at 57.5 µM, active compounds read low
About 17,000 (4.7%) of roughly 360,000 compounds were called active. Another 5% or so got no clear call; they are omitted. The entries come from a sample that favours actives as a whole.
Could you please report measured activity change for the items listed next?
Numbers only, in %.

Use the examples below as a reference point.
>>> print(df.to_string())
                                   compound  measured_endpoint  quantitative_readout
0  CCOc1c2ccc(C(=O)NCc3ccc4c(c3)OCO4)cc2nn1C    activity change                 -4.17
1  COc1cc(OC)c(C(=O)NCc2ccc3c(c2)OCO3)cc1OC    activity change                    38
2  O=C(Nc1cccc(C(=O)O)c1)/C(=C\c1ccccc1)NC(=O)c1ccc(Br)o1    activity change                 -24.2
3              CCOC(=O)CSc1nccc(N(C)C)c1C#N    activity change                 -70.3
4  Cc1ccc(-c2nc3ccc(Br)cn3c2Cc2ccccc2C(F)(F)F)cc1    activity change                  16.5

# return activity change for each item in the list
1. CCOC(=O)CSc1ccccn1
2. CCCC(=O)N1CCC1(C)C(=O)NS(=O)(=O)c1ccc(Cl)cc1 (stereo unspecified)

Result:
[3.79, 26]

# return activity change for each item in the list
1. COc1ccccc1-n1c(C)nc2cc(C(=O)NCc3ccc4c(c3)OCO4)ccc21
2. COc1cccc(C(=O)Nc2ccc3nc4n(c(=O)c3c2)CCCCC4)c1
3. Cc1nc(SCC(=O)c2ccccc2)c([N+](=O)[O-])[nH]1
4. CCOC(=O)CSc1nc(N2CCOCC2)c2c(c1C#N)CC(C(C)C)OC2 (stereo unspecified)

Result:
1: -65.9; 2: 5.21; 3: 23.3; 4: 56.1

Cited source: PubChem BioAssay AID743279
